test system: aorta rings; test: Vasorelaxant action in vitro (phenylephrine-contracted rabbit aorta rings); settings: Oryctolagus cuniculus, phenylephrine-induced contraction, organ bath 37° C., 0.1% DMSO, read-out: IC50 (concentration needed to reduce the magnitude of the control contraction by 50%)
pIC50: −log10 of the molar value. Structures can show the parent of a compound that is named as a salt.
READOUT_TYPE: pIC50

# count of solved cases: 4
>>> numeric_readout("CCN(C(=O)OC)c1c(N)nc(-c2nc(Cc3ccccc3F)n3ncccc23)nc1N [Example 8, formate]")
6.82
>>> numeric_readout("Nc1nc(N)nc(-c2nc(Cc3ccccc3F)n3ncccc23)n1 [Example 1, formate]")
6.89
>>> numeric_readout("COC(=O)N(Cc1ccccc1)c1c(N)nc(-c2nc(Cc3ccccc3F)n3ncccc23)nc1N [Example 15, formate]")
6.77
>>> numeric_readout("CCOC(=O)Nc1c(N)nc(-c2nc(Cc3ccccc3F)n3ncccc23)nc1N [Example 5, formate]")
6.70

P = Nc1nc(-c2nc(Cc3ccccc3F)n3ncccc23)nc(N)c1NC(=O)OC1CCC1 [Example 11, formate]
Q = COC(=O)N(Cc1cccc(F)c1)c1c(N)nc(-c2nc(Cc3ccccc3F)n3ncccc23)nc1N [Example 19, formate]
Ask | Choose between P and Q : whose measured pIC50 value is numerically larger? In your reply, give the label of the chosen option.
Reply | Q
(Q: 7.09, P: 6.37)

###

molecular target: recombinant guanylate cyclase reporter cell line (Rattus norvegicus, UniProt P19686+P20595); construct: expressed in transfected cells; test: Effect on a recombinant guanylate cyclase reporter cell line; type: cell-based; conditions: recombinant guanylate cyclase reporter cell line (Wunder et al. 2005)
Sequence (P19686 whole entry): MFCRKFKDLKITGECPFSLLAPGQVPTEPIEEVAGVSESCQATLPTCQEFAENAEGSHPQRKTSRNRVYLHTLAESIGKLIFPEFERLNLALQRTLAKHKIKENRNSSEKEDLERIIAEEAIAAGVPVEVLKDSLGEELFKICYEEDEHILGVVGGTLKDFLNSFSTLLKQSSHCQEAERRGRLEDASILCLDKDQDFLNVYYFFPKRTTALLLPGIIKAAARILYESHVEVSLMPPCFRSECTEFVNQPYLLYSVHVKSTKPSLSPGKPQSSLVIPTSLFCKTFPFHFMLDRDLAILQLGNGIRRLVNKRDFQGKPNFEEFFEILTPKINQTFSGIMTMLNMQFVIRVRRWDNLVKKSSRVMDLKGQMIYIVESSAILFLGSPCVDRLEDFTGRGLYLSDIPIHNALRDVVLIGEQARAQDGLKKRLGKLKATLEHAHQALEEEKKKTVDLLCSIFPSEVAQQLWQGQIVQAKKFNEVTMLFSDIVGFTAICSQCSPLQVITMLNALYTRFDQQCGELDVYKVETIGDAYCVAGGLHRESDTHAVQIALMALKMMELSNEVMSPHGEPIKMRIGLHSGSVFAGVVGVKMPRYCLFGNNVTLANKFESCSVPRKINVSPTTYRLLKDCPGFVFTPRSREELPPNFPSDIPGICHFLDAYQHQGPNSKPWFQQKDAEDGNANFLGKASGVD
Sequence (P20595 whole entry): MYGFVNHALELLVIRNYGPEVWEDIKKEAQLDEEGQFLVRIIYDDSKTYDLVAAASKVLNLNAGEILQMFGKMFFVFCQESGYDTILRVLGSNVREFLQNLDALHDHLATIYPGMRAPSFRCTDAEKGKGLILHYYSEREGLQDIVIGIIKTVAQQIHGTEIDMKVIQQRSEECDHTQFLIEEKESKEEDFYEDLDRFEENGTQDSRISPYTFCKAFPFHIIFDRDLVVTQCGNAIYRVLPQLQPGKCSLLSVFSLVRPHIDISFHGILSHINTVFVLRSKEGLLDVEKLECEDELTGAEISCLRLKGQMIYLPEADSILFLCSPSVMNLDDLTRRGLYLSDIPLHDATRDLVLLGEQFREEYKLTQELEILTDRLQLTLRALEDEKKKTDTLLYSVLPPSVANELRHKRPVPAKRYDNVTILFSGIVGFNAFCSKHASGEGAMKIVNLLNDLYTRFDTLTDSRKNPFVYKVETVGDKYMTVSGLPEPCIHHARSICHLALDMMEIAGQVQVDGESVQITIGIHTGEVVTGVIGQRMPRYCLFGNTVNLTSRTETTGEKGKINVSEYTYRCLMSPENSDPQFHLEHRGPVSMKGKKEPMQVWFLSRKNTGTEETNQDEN
Counter-ions that a name gives are not always drawn.
READOUT_TYPE: MEC (minimum effective concentration) (µM)

# count of solved cases: 2
>>> numeric_readout("CCN(C(=O)OC)c1c(N)nc(-c2nc(Cc3ccccc3F)n3ncccc23)nc1N [Example 8, formate]")
0.1
>>> numeric_readout("Nc1nc(-c2nc(Cc3ccccc3F)n3ncccc23)nc(N)c1NC(=O)OC1CCC1 [Example 11, formate]")
0.3

P = COC(=O)N(Cc1cccc(F)c1)c1c(N)nc(-c2nc(Cc3ccccc3F)n3ncccc23)nc1N [Example 19, formate]
Q = CCOC(=O)Nc1c(N)nc(-c2nc(Cc3ccccc3F)n3ncccc23)nc1N [Example 5, formate]
R = Nc1nc(N)nc(-c2nc(Cc3ccccc3F)n3ncccc23)n1 [Example 1, formate]
S = COC(=O)N(Cc1ccccc1)c1c(N)nc(-c2nc(Cc3ccccc3F)n3ncccc23)nc1N [Example 15, formate]
Ask | Order the records so the highest MEC (minimum effective concentration) appears first and the lowest last. A complete answer lists every label in the requested sequence.
Reply | Q, P, R, S
